# target: UniProtKB P04062
# Sequence (P04062 40-536): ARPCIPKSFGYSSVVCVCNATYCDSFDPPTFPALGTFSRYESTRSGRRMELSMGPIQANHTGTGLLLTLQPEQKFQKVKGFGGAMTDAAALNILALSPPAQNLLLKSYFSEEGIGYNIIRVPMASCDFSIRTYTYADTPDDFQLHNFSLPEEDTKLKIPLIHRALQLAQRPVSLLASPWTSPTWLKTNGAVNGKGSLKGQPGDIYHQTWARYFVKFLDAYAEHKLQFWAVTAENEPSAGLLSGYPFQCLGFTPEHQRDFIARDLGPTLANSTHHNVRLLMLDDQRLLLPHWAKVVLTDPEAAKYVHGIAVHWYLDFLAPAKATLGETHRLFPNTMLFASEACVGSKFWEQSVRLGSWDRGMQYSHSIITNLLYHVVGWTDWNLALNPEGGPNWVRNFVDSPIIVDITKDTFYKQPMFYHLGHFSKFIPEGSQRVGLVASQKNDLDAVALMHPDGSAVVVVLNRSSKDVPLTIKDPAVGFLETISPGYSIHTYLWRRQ
# measurement_notes: Glucocerebrosidase (Gcase) activation assay, 4-methylumbelliferyl-beta-D-glucopyranoside substrate, fluorescence
# Format: biochemical
# study_conditions: 0.1 μM test compound; 10 nM GCase, 100 nM saposin C, pH 4.7; read-out: Percent Gcase Activation, 0.1 μM Test Compound
Below, each entry is listed with its recorded activation at 0.1 µM.
readout_name: activation at 0.1 µM

{"columns": ["molecule", "readout_name", "reading"],
 "data": [
  ["Cc1nc(-c2ccc(F)cc2)nc2c(C(=O)NC(C3CC3)C(F)(F)F)ccn12 (stereo not shown)", "activation at 0.1 µM", "> 20%"],
  ["Cc1nc(C)n2ccc(C(=O)NC(C)(C)C3CC3)c2n1", "activation at 0.1 µM", "< 5%"],
  ["CCCCCO[C@H]1CC[C@H](NC(=O)c2ccn3c(C)nc(C)nc23)CC1", "activation at 0.1 µM", "5 to 20%"],
  ["CCC(NC(=O)c1cccc2c(C)nc(C)nc12)c1ccccc1 (stereo not shown)", "activation at 0.1 µM", "< 5%"],
  ["Cc1nc(C)n2ccc(C(=O)NC3(C)CCCc4ccccc43)c2n1 (stereo not shown)", "activation at 0.1 µM", "5 to 20%"],
  ["Cc1nc(C)n2ccc(C(=O)Nc3ccc4c(c3)CCC4)c2n1", "activation at 0.1 µM", "< 5%"],
  ["C#Cc1ccc(NC(=O)c2cccc3c(C)nc(C)nc23)cc1", "activation at 0.1 µM", "< 5%"]
]}

---

Below, each entry is listed with its recorded log10 solubility.
# measurement_notes: Compound solubility in water
# Type: physicochemical
readout_name: log10 solubility (log10 of the value in µg/mL)

{"columns": ["molecule", "log10 solubility"],
 "data": [
  ["Cc1nc(C)n2ccc(C(=O)NC(C3CC3)C(F)(F)F)c2n1 (centres unmarked)", 1.45],
  ["CCC(NC(=O)c1cccc2c(C)nc(C)nc12)c1ccccc1 (centres unmarked)", 0.94],
  ["Cc1nc(C)c2cccc(C(=O)NC3CCCc4ccccc43)c2n1 (centres unmarked)", 0.70],
  ["CCCCCO[C@H]1CC[C@H](NC(=O)c2ccn3c(C)nc(C)nc23)CC1", 1.10],
  ["CCCCCO[C@H]1CC[C@H](NC(=O)c2cccc3c(C)nc(C)nc23)CC1", 0.88],
  ["C#Cc1ccc(NC(=O)c2ccn3c(C)nc(C)nc23)cc1", 0.26],
  ["Cc1nc(-c2ccc(F)cc2)nc2c(C(=O)NC(C3CC3)C(F)(F)F)ccn12 (centres unmarked)", -1.00],
  ["C#Cc1ccc(NC(=O)c2cccc3c(C)nc(C)nc23)cc1", -0.15]
]}

---

# target: glucocerebrosidase (Gcase) (Homo sapiens)
# measurement_notes: Glucocerebrosidase (Gcase) activation assay, 4-methylumbelliferyl-beta-D-glucopyranoside substrate, fluorescence
# Format: biochemical
# study_conditions: 0.1 μM test compound; 10 nM GCase, 100 nM saposin C, pH 4.7; read-out: Percent Gcase Activation, 0.1 μM Test Compound

{"columns": ["compound", "target", "activation at 0.1 µM"],
 "data": [
  ["Cc1nc(C)c2cccc(C(=O)NC3CCCc4ccccc43)c2n1 (stereo not drawn)", "glucocerebrosidase (Gcase) (Homo sapiens)", "< 5%"],
  ["Cc1nc(C)c2cccc(C(=O)Nc3ccc4c(c3)CCC4)c2n1", "glucocerebrosidase (Gcase) (Homo sapiens)", "< 5%"],
  ["Cc1nc(C)n2ccc(C(=O)NC(C3CC3)C(F)(F)F)c2n1 (stereo not drawn)", "glucocerebrosidase (Gcase) (Homo sapiens)", "5 to 20%"],
  ["CCC(NC(=O)c1ccn2c(C)nc(C)nc12)c1ccccc1 (stereo not drawn)", "glucocerebrosidase (Gcase) (Homo sapiens)", "5 to 20%"],
  ["Cc1nc(-c2ccc(F)cc2)nc2c(C(=O)NC(C)(C)C3CC3)ccn12", "glucocerebrosidase (Gcase) (Homo sapiens)", "< 5%"],
  ["C#Cc1ccc(NC(=O)c2ccn3c(C)nc(C)nc23)cc1", "glucocerebrosidase (Gcase) (Homo sapiens)", "< 5%"]
]}

---

# target: glucocerebrosidase (Gcase) (Homo sapiens, UniProt P04062)
# measurement_notes: Glucocerebrosidase (Gcase) activation assay, 4-methylumbelliferyl-beta-D-glucopyranoside substrate, fluorescence
# Format: biochemical
# study_conditions: 1 μM test compound; 10 nM GCase, 100 nM saposin C, pH 4.7; read-out: Percent Gcase Activation, 1 μM Test Compound
Below, each entry is listed with its recorded activation at 1 µM.

{"columns": ["compound", "target", "activation at 1 µM"],
 "data": [
  ["Cc1nc(-c2cccc(F)c2)nc2c(C(=O)NC(C3CC3)C(F)(F)F)ccn12 (stereo not drawn)", "glucocerebrosidase (Gcase) (Homo sapiens, UniProt P04062)", "> 20%"],
  ["Cc1nc(C)n2ccc(C(=O)NC(C)(C)C3CC3)c2n1", "glucocerebrosidase (Gcase) (Homo sapiens, UniProt P04062)", "5 to 20%"],
  ["CCC(NC(=O)c1cccc2c(C)nc(C)nc12)c1ccccc1 (stereo not drawn)", "glucocerebrosidase (Gcase) (Homo sapiens, UniProt P04062)", "5 to 20%"],
  ["Cc1nc(C)n2ccc(C(=O)NC3(C)CCCc4ccccc43)c2n1 (stereo not drawn)", "glucocerebrosidase (Gcase) (Homo sapiens, UniProt P04062)", "> 20%"],
  ["Cc1nc(C)c2cccc(C(=O)NC3CCCc4ccccc43)c2n1 (stereo not drawn)", "glucocerebrosidase (Gcase) (Homo sapiens, UniProt P04062)", "5 to 20%"],
  ["C#Cc1ccc(NC(=O)c2ccn3c(C)nc(C)nc23)cc1", "glucocerebrosidase (Gcase) (Homo sapiens, UniProt P04062)", "> 20%"]
]}

---

# measurement_notes: Compound solubility in water
# Format: physicochemical
readout_name: solubility (µg/mL)

{"columns": ["compound", "units_symbol", "reading"],
 "data": [
  ["Cc1nc(C)n2ccc(C(=O)Nc3ccc4c(c3)CCC4)c2n1", "µg/mL", 1.2],
  ["Cc1nc(-c2cccc(C#N)c2)nc2c(C(=O)NC(C3CC3)C(F)(F)F)ccn12 (stereo not shown)", "µg/mL", 0.6],
  ["Cc1nc(-c2cccc(C(N)=O)c2)nc2c(C(=O)NC(C3CC3)C(F)(F)F)ccn12 (stereo not shown)", "µg/mL", 1.9],
  ["COc1cc(-c2nc(C)n3ccc(C(=O)NC(C)C(F)(F)F)c3n2)ccc1F (stereo not shown)", "µg/mL", 1],
  ["Cc1nc(-c2cccc(F)c2)nc2c(C(=O)NC(C3CC3)C(F)(F)F)ccn12 (stereo not shown)", "µg/mL", 0.2],
  ["Cc1nc(C)c2cccc(C(=O)Nc3ccc4c(c3)CCC4)c2n1", "µg/mL", 0.5],
  ["Cc1nc(C)n2ccc(C(=O)NC(C)(C)C3CC3)c2n1", "µg/mL", 38.4],
  ["CCC(NC(=O)c1ccn2c(C)nc(C)nc12)c1ccccc1 (stereo not shown)", "µg/mL", 17.4],
  ["Cc1nc(-c2ccc(F)cc2)nc2c(C(=O)NC(C)(C)C3CC3)ccn12", "µg/mL", 0.5],
  ["Cc1nc(C)n2ccc(C(=O)NC3(C)CCCc4ccccc43)c2n1 (stereo not shown)", "µg/mL", 5.1]
]}

---

# target: glucocerebrosidase (Gcase) (Homo sapiens, UniProt P04062)
# Sequence (P04062 40-536): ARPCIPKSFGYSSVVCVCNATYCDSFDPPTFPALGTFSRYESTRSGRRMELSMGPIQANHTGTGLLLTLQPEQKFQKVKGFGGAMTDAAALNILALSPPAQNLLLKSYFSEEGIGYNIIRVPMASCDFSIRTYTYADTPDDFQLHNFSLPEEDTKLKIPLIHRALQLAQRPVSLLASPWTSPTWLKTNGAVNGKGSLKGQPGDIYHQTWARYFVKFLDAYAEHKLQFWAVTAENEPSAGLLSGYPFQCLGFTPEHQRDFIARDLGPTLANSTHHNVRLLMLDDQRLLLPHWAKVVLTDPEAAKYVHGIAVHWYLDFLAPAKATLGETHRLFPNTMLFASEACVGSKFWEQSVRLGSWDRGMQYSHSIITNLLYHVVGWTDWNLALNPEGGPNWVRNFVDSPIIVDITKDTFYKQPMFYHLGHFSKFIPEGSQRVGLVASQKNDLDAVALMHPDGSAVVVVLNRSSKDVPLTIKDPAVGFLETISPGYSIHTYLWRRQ
# measurement_notes: Glucocerebrosidase (Gcase) activation assay, 4-methylumbelliferyl-beta-D-glucopyranoside substrate, fluorescence
# Format: biochemical
# study_conditions: 1 μM test compound; 10 nM GCase, 100 nM saposin C, pH 4.7; read-out: Percent Gcase Activation, 1 μM Test Compound
readout_name: activation at 1 µM

{"columns": ["compound", "target", "reading"],
 "data": [
  ["COc1cc(-c2nc(C)n3ccc(C(=O)NC(C)C(F)(F)F)c3n2)ccc1F (centres unmarked)", "glucocerebrosidase (Gcase) (Homo sapiens, UniProt P04062)", "> 20%"],
  ["Cc1nc(-c2ccc(F)cc2)nc2c(C(=O)NC(C)(C)C3CC3)ccn12", "glucocerebrosidase (Gcase) (Homo sapiens, UniProt P04062)", "> 20%"],
  ["CCCCCO[C@H]1CC[C@H](NC(=O)c2cccc3c(C)nc(C)nc23)CC1", "glucocerebrosidase (Gcase) (Homo sapiens, UniProt P04062)", "5 to 20%"],
  ["C#Cc1ccc(NC(=O)c2cccc3c(C)nc(C)nc23)cc1", "glucocerebrosidase (Gcase) (Homo sapiens, UniProt P04062)", "< 5%"],
  ["Cc1nc(-c2cccc(C#N)c2)nc2c(C(=O)NC(C3CC3)C(F)(F)F)ccn12 (centres unmarked)", "glucocerebrosidase (Gcase) (Homo sapiens, UniProt P04062)", "> 20%"]
]}
